Values compiled from PubChem BioAssay AID485364.

systemUnderTest: Schistosoma mansoni thioredoxin glutathione reductase (TGR) (UniProt Q962Y6)
experimentDescription: qHTS Assay for the Inhibitors of Schistosoma Mansoni Peroxiredoxins; further: nearly all actives have a fitted effect of over 60% in size
appliedConditions: purified TGR, DTNB reduction, TNB absorbance 405 nm; series mostly up to 114 µM
The campaign covered roughly 360,000 compounds. About 11,000 (3.1%) were called active. Roughly 4% stayed inconclusive and do not appear here. The call rests on the fitted dose curve; in most records, active means well fitted inhibition curve with a large enough effect; inconclusive means small, poorly fitted or top-dose-only effect; inactive means no such curve, though single readings can be large or run the other way. Only a selection was taken, and actives are over-represented in it overall.
Permitted responses: active, inactive

Example cases with answers are listed next.
# chemicalString, systemUnderTest, group
data = [
    ("Cc1ccc(S(=O)(=O)N(CC(=O)Nc2ccc(Cl)cc2Cl)c2ccccc2C)cc1", "Schistosoma mansoni thioredoxin glutathione reductase (TGR) (UniProt Q962Y6)", "inactive"),
    ("Cc1nc2ccccc2c(=O)n1-c1ccc(Cl)cc1Cl", "Schistosoma mansoni thioredoxin glutathione reductase (TGR) (UniProt Q962Y6)", "inactive"),
]

Dear all, I need the recorded test outcome for "Cc1ccccc1NC(=O)c1cc2c([nH]c1=O)CC(C)(C)CC2=O" , thank you.
inactive

Dear all, I need the recorded test outcome for "CN(C)[C@@H]1C(=O)C(C(N)=O)=C(O)[C@@]2(O)C(=O)C3=C(O)c4c(O)ccc(Cl)c4[C@@H](O)[C@H]3C[C@@H]12" , thank you.
active

Dear all, I need the recorded test outcome for "O=C1[C@@H]2C(c3cccnc3)=NO[C@@H]2C(=O)N1c1ccc(Cl)cc1Cl" , thank you.
active

###

systemUnderTest: Schistosoma mansoni thioredoxin glutathione reductase (TGR) (UniProt Q962Y6)
experimentDescription: qHTS Assay for the Inhibitors of Schistosoma Mansoni Peroxiredoxins; further: nearly all actives have a fitted effect of over 60% in size
appliedConditions: purified TGR, DTNB reduction, TNB absorbance 405 nm; series mostly up to 114 µM
The campaign covered roughly 360,000 compounds. About 11,000 (3.1%) were called active. Inconclusive results (about 4%) are left out. Calls come from the whole dose curve; as a rule, active = well fitted inhibition curve with a large enough effect; inconclusive = small, poorly fitted or top-dose-only effect; inactive = no such curve, though single readings can be large or run the other way. The sample as a whole holds a higher share of actives than the screen did.
Permitted responses: true (active), false (inactive)

Example cases with answers are listed next.
# molecule, group
records = [
    ("O=C(CSc1nccn1Cc1ccc(Cl)cc1)NCc1ccccc1", "false"),
    ("COc1ccc(CCNC(=O)c2nn(C)c3c2CSc2ccccc2-3)cc1OC", "false"),
    ("CCOC(=O)c1ccccc1CN1C(=O)c2ccccc2S1(=O)=O", "false"),
]

Dear all, I need the recorded test outcome for "COc1ccc(/C=C(/NC(=O)c2ccco2)C(=O)Nc2ccc(C(C)=O)cc2)cc1" , thank you.
false

Dear all, I need the recorded test outcome for Cc1ccn(C(CC(=O)c2ccc(Br)cc2)C(=O)O)n1 (stereo not drawn) , thank you.
true

Dear all, I need the recorded test outcome for "O=C(Nc1ccccc1Cl)N1CCC(CN2CCCC2)CC1" , thank you.
false

Dear all, I need the recorded test outcome for C=CCOc1cccc(C2C(C(=O)c3ccc(C)o3)=C(O)C(=O)N2c2nnc(C)s2)c1 (stereo not drawn) , thank you.
true

Dear all, I need the recorded test outcome for CCOC(=O)C1(Cc2ccccc2C)CCCN(C(=O)CCc2c(C)noc2C)C1 (stereo not drawn) , thank you.
false

###

systemUnderTest: Schistosoma mansoni thioredoxin glutathione reductase (TGR) (UniProt Q962Y6)
experimentDescription: qHTS Assay for the Inhibitors of Schistosoma Mansoni Peroxiredoxins; further: nearly all actives have a fitted effect of over 60% in size
appliedConditions: purified TGR, DTNB reduction, TNB absorbance 405 nm; series mostly up to 114 µM
The whole screen tested about 360,000 compounds, of which about 11,000 (3.1%) were called active. Not shown: some 4% with an inconclusive outcome. Calls follow the shape of the dose curve; as a rule, active = well fitted inhibition curve with a large enough effect; inconclusive = small, poorly fitted or top-dose-only effect; inactive = no such curve, though single readings can be large or run the other way. The list comes from a sample in which actives are over-represented; it also holds close analogues and randomly drawn compounds.
Permitted responses: active, inactive

Example cases with answers are listed next.
# compound, group
data = [
    ("Cc1ccc(-n2c(=O)c3cccnc3n2CC(=O)Nc2ccccc2C(F)(F)F)cc1C", "inactive"),
    ("c1ccc(CSc2nnc(-c3ccco3)c(-c3ccco3)n2)cc1", "active"),
    ("C=C(C)Cn1c(SCC(=O)NCc2ccco2)nc2sc3c(c2c1=O)CCC3", "active"),
    ("O=C(NCc1ccco1)c1nc2ncccn2n1", "inactive"),
    ("CCc1ccc(NC(=O)c2cc(S(=O)(=O)N3CCCC(C)C3)cn2C)cc1 (configuration not stated)", "inactive"),
    ("Cc1cc(C)cc(NS(=O)(=O)c2cc3c(cc2C)NC(=O)CO3)c1", "inactive"),
    ("Cc1ccc(Cl)cc1NC(=O)CCC(=O)N1CC(C)Sc2ccccc21 (configuration not stated)", "inactive"),
    ("Clc1ccccc1CSc1nncn2c1cc1occc12", "inactive"),
]

# ---- query compound ----
Dear all, I need the recorded test outcome for "CC1(C)N=C(SCc2ccccc2Cl)c2ccccc2N1" , thank you.
inactive
